- Test system: redroot pigweed
- EXPERIMENT_NOTES: Test A pre-/postemergence herbicide test
- Format: in vivo, Amaranthus retroflexus
- RECORDED_CONDITIONS: Preemergence, 2000 g ai/ha; visual rating, 0 to 100 scale (0 no effect, 100 complete control)
- Excerpt: […] Plants ranged in height from 2 to 10 cm and were in the one- to two-leaf stage for the postemergence treatment. Treated plants and untreated controls were maintained in a greenhouse for approximately ten days, after which time all treated plants were compared to untreated controls and visually evaluated for injury. […]
# Lookup of reported Pigweed plant response rating keyed by entry

[
  {
    "COMPOUND": "Cc1nn(C(C)(C)C)cc1C(=O)Nc1cccc(OC(C)C)c1 [Compound 189]",
    "Pigweed plant response rating": 40
  },
  {
    "COMPOUND": "CCNC(=O)c1cccc(NC(=O)c2cc(C(C)(C)C)nn2CC)n1 [Compound 144]",
    "Pigweed plant response rating": 100
  },
  {
    "COMPOUND": "CCNC(=O)c1cccc(NC(=O)c2nn(C3CCCC3)nc2CC)c1 [Compound 356]",
    "Pigweed plant response rating": 80
  },
  {
    "COMPOUND": "CC(=NO)c1cccc(NC(=O)c2cc(C(F)(F)F)nn2C)c1 [Compound 103]",
    "Pigweed plant response rating": 95
  },
  {
    "COMPOUND": "C#CCNC(=O)c1cccc(NC(=O)c2sc(C(C)(C)C)nc2CC)c1 [Compound 319]",
    "Pigweed plant response rating": 100
  },
  {
    "COMPOUND": "CCn1nc(C(C)(C)C)cc1C(=O)Nc1ccnc(C(=O)N2CC=CC2)c1 [Compound 282]",
    "Pigweed plant response rating": 90
  },
  {
    "COMPOUND": "CC(=NO)c1cccc(NC(=O)c2cc(C(C)(C)C)nn2C)c1 [Compound 107]",
    "Pigweed plant response rating": 95
  },
  {
    "COMPOUND": "CCNC(=O)c1ccc(F)c(NC(=O)c2cc(C3(C)CC3)nn2CC)c1 [Compound 300]",
    "Pigweed plant response rating": 100
  },
  {
    "COMPOUND": "CCn1nc(C(C)(C)C)cc1C(=O)Nc1cccc(C(C)=O)c1 [Compound 122]",
    "Pigweed plant response rating": 90
  },
  {
    "COMPOUND": "CCN(C)C(=O)c1ccc(F)c(NC(=O)c2cc(C(C)(C)C)nn2CC)n1 [Compound 280]",
    "Pigweed plant response rating": 90
  },
  {
    "COMPOUND": "CCc1nc(C(C)(C)C)sc1C(=O)Nc1cccc(C(=O)NC(C)(C)C)n1 [Compound 216]",
    "Pigweed plant response rating": 70
  },
  {
    "COMPOUND": "Cn1nc(C(C)(C)C)cc1C(=O)Nc1cccc(C#N)c1 [Compound 121]",
    "Pigweed plant response rating": 100
  },
  {
    "COMPOUND": "CCn1nc(C(C)(C)C)cc1C(=O)Nc1cc(OC(F)(F)F)ccc1F [Compound 338]",
    "Pigweed plant response rating": 90
  },
  {
    "COMPOUND": "CCc1nc(C(C)(C)C)sc1C(=O)Nc1cccc(C(=O)NCC2CC2)c1 [Compound 212]",
    "Pigweed plant response rating": 100
  }
]
